- METHOD: Cellular toxicity in T-lymphoblastoic cell line (CEM), cell number 3 days post treatment
- Type: cell-based
- ASSAY_SETUP: human; CEM cells, 3 days; read-out: Cytotoxicity ID50

>  <LINE_NOTATION>
Nc1ccn([C@@H]2CC[C@H](CO)O2)c(=O)n1

>  <CC50 at 72 h (µM)>
54

$$$$

###

- METHOD: in vitro
- ASSAY_SETUP: human, cem cells
pIC50: −log10 of the molar value.
REPORTED_PROPERTY: pIC50

>  <LINE_NOTATION>
Nc1ccn([C@@H]2CC[C@H](CO)O2)c(=O)n1

>  <REPORTED_PROPERTY>
pIC50

>  <EXPERIMENTAL_VALUE>
< 4.00

$$$$
